Experiment: Test D: Acute toxicity
Parameters: species or system ICR male mice
Conditions: mouse, in vivo; oral, 982 mg/kg, 0.5% CMC suspension; read-out: mortality after seven days
Readout type: mortality at 168 h (%)
Numbers only, in %.

Which mortality at 168 h reading was recorded for the molecule O=C(O)CC(O)CC(O)/C=C/c1c(-c2ccc(F)cc2)nc(-c2ccccc2)nc1C1CC1 (stereo not shown) ?
0

###

Test: Test D: Acute toxicity
Parameters: species or system ICR male mice
Details: mouse, in vivo; oral, 824 mg/kg, 0.5% CMC suspension; read-out: mortality after seven days
Readout type: mortality at 168 h

Which mortality at 168 h reading was recorded for the compound CC(C)c1nc(-c2ccccc2)nc(-c2ccc(F)cc2)c1/C=C/C(O)CC(O)CC(=O)O (stereo not shown) [Compound I-5-8] ?
0%

###

Molecular target: cholesterol biosynthesis in which HMG-CoA reductase serves as a rate limiting enzyme (rat liver microsome and sup fraction)
Assay: Test A: Inhibition of cholesterol biosynthesis from acetate in vitro
Details: Test A; rat liver microsome and sup fraction; [2-14C]sodium acetate, 2 hours at 37° C.; read-out: IC50 (molar concentration), inhibitory activities by Test A
Readout type: IC50 (nM)
Give bare numbers, in nM.

Worked cases, IC50 given:
# Molecule, Readout type, Scale unit, Quantitative readout
rows = [
    ("Cc1nc(C)c(/C=C/C(O)CC(O)CC(=O)O)c(-c2ccccc2)n1 (centres unmarked)", "IC50", "nM", 5000),
    ("Cc1nc(-c2ccccc2)nc(-c2ccccc2)c1/C=C/C(O)CC(O)CC(=O)O (centres unmarked)", "IC50", "nM", 100),
    ("CC[C@H](C)C(=O)O[C@H]1C[C@@H](C)C=C2C=C[C@H](C)[C@H](CC[C@@H]3C[C@@H](O)CC(=O)O3)[C@H]21 [Mevinolin, reference compound]", "IC50", "nM", 14),
]

Batch request: IC50 per item, same order as input.
1. Cc1nc(-c2ccccc2)nc(-c2ccc(F)cc2)c1/C=C/C(O)CC(O)CC(=O)O (centres unmarked)
2. CC[C@H](C)C(=O)O[C@H]1C[C@H](O)C=C2C=C[C@H](C)[C@H](CC[C@@H](O)C[C@@H](O)CC(=O)O)[C@H]21 [CS-514, reference compound]

1: 18; 2: 12.5

###

System: cholesterol biosynthesis in which HMG-CoA reductase serves as a rate limiting enzyme (rat liver microsome and sup fraction)
Test: Test A: Inhibition of cholesterol biosynthesis from acetate in vitro
Format: biochemical, male Wistar rat
Details: based on the activities of CS-514 by Test A being evaluated to be 1
Think of 10 as a floor: if Relative activities by Test A stands on it or above, it is 1 (yes); beneath it, 0 (no).

# Molecule, Category label
rows = [
    ("O=C(O)CC(O)CC(O)/C=C/c1c(-c2ccc(F)cc2)nc(-c2ccc(-c3ccccc3)cc2)nc1C1CC1 (stereo not drawn)", "0 (no)"),
    ("O=C(O)CC(O)CC(O)/C=C/c1c(-c2ccc(F)cc2)nc(Cc2ccccc2)nc1C1CC1 (stereo not drawn)", "1 (yes)"),
    ("COc1ccc(-c2nc(-c3ccc(F)cc3)c(/C=C/C(O)CC(O)CC(=O)O)c(C3CC3)n2)cc1 (stereo not drawn)", "1 (yes)"),
    ("O=C(O)CC(O)CC(O)/C=C/c1c(-c2ccc(F)cc2)nc(-c2cccc(Cl)c2)nc1C1CC1 (stereo not drawn)", "1 (yes)"),
    ("O=C(O)CC(O)CC(O)/C=C/c1c(-c2ccc(F)cc2)nc(-c2ccccc2)nc1C1CC1 (stereo not drawn)", "1 (yes)"),
    ("O=C(O)CC(O)CC(O)/C=C/c1c(-c2ccc(F)cc2)nc(-c2cccc(C(F)(F)F)c2)nc1C1CC1 (stereo not drawn)", "1 (yes)"),
    ("CC(C)c1nc(-c2ccccc2)nc(-c2ccc(F)cc2)c1/C=C/[C@@H]1C[C@@H](O)CC(=O)O1 (relative stereo)", "0 (no)"),
    ("Cc1ccc(-c2nc(-c3ccc(F)cc3)c(/C=C/C(O)CC(O)CC(=O)O)c(C3CC3)n2)cc1 (stereo not drawn)", "1 (yes)"),
]

Threshold query (Relative activities by Test A >= 10) on CC(C)c1nc(-c2ccccc2)nc(-c2ccc(F)cc2)c1/C=C/C(O)CC(O)CC(=O)O (stereo not drawn)
0 (no)
